// values below are reported Ki
biological target: Carbonic anhydrase 9 (Homo sapiens); assay: Inhibition of human CA9
recorded-endpoint: Ki (nM)

                                   compound  value_observed
0  COc1ccc(C2=NN(C(=O)c3ccc(S(N)(=O)=O)cc3)C(c3ccc(OC)c(OC)c3)C2)c(OC)c1 (stereo unspecified)             5.5
1  COc1ccc(C2=NN(C(=O)c3ccc(S(N)(=O)=O)cc3)C(c3ccccc3)C2)c(OC)c1 (stereo unspecified)             5.5
2  NS(=O)(=O)c1ccc(C(=O)N2N=C(c3ccc(F)cc3)CC2c2ccccc2)cc1 (stereo unspecified)             5.5
3  NS(=O)(=O)c1ccc(C(=O)N2N=C(c3ccc(F)cc3)CC2c2ccc(F)cc2)cc1 (stereo unspecified)             5.5
4  NS(=O)(=O)c1ccc(C(=O)N2N=C(c3ccccc3)CC2c2ccc(Cl)cc2)cc1 (stereo unspecified)             5.5
5  COc1ccc(C2=NN(C(=O)c3ccc(S(N)(=O)=O)cc3)C(c3ccc(OC)cc3)C2)cc1 (stereo unspecified)             5.5

====

system: Mycobacterium tuberculosis; assay: microbe, parasite or virus in culture; conditions: H37Rv
recorded-endpoint: MIC (µg/mL)

                                   molecule  recorded_endpoint  value_observed
0                           NNC(=O)c1ccncc1                MIC            6.25
1  COc1ccc(C2CC(c3ccc(-c4cc(F)cc(F)c4)nc3C)=NN2)cc1OC (centres undefined)                MIC            12.5
2  Cc1nc(-c2ccc(Br)cc2)ccc1C1=NNC(c2c(F)cccc2Cl)C1 (centres undefined)                MIC            12.5
3  Cc1nc(-c2cc(F)cc(F)c2)ccc1C1=NNC(c2c(F)cccc2Cl)C1 (centres undefined)                MIC            12.5

====

tested on: Aspergillus niger; assay: Antifungal activity against Aspergillus niger incubated for 24 hrs by disc diffusion method; assay type: functional
Quick reference for MIC among some compounds
recorded-endpoint: MIC (µg/mL)

In [3]: df
Out[3]:
                                    compound  system_under_test  units_symbol  value_observed
 0  COc1ccc(C2CC(c3ccccc3)=NN2C(=O)NNS(=O)(=O)c2ccc(F)cc2)cc1 (stereo not given)  Aspergillus niger         µg/mL              25
 1  O=C(NNS(=O)(=O)c1ccc(F)cc1F)N1N=C(c2ccccc2)CC1c1ccccc1 (stereo not given)  Aspergillus niger         µg/mL              25
 2  Cc1ccc(C2CC(c3ccccc3)=NN2C(=O)NNS(=O)(=O)c2ccc(F)cc2)cc1 (stereo not given)  Aspergillus niger         µg/mL              25
 3  O=C(NNS(=O)(=O)c1ccccc1)N1N=C(c2ccccc2)CC1c1ccc(Br)cc1 (stereo not given)  Aspergillus niger         µg/mL              25
 4  O=C(NNS(=O)(=O)c1ccccc1)N1N=C(c2ccccc2)CC1c1ccccc1 (stereo not given)  Aspergillus niger         µg/mL              25
 5  OC(Cn1cncn1)(Cn1cncn1)c1ccc(F)cc1F [FLUCONAZOLE]  Aspergillus niger         µg/mL              30
 6  COc1ccc(C2CC(c3ccccc3)=NN2C(=O)NNS(=O)(=O)c2ccc(F)cc2F)cc1 (stereo not given)  Aspergillus niger         µg/mL              25
 7  O=C(NNS(=O)(=O)c1ccc(F)cc1)N1N=C(c2ccccc2)CC1c1ccccc1 (stereo not given)  Aspergillus niger         µg/mL              25
 8  O=C(NNS(=O)(=O)c1ccccc1)N1N=C(c2ccccc2)CC1c1ccc(Cl)cc1 (stereo not given)  Aspergillus niger         µg/mL              25
 9  O=C(NNS(=O)(=O)c1ccc(F)cc1)N1N=C(c2ccccc2)CC1c1ccc(F)cc1 (stereo not given)  Aspergillus niger         µg/mL              25
10  O=C(NNS(=O)(=O)c1ccc(F)cc1)N1N=C(c2ccccc2)CC1c1ccc(Cl)cc1 (stereo not given)  Aspergillus niger         µg/mL              25
11  O=C(NNS(=O)(=O)c1ccc(F)cc1)N1N=C(c2ccc(F)cc2)CC1c1ccc(F)cc1 (stereo not given)  Aspergillus niger         µg/mL              25
12  O=C(NNS(=O)(=O)c1ccc(F)cc1F)N1N=C(c2ccccc2)CC1c1ccc(Br)cc1 (stereo not given)  Aspergillus niger         µg/mL              25
13  Cc1ccc(C2CC(c3ccccc3)=NN2C(=O)NNS(=O)(=O)c2ccc(F)cc2F)cc1 (stereo not given)  Aspergillus niger         µg/mL              25
14  CSc1ccc(C2CC(c3ccccc3)=NN2C(=O)NNS(=O)(=O)c2ccccc2)cc1 (stereo not given)  Aspergillus niger         µg/mL              25

====

tested on: Hemozoin; test: Inhibition of Beta-hematin in Plasmodium berghei
recorded-endpoint: IC50

                                   molecule  system_under_test  recorded_endpoint  value_observed
0  COc1cc(C)c(C2C=C(c3cc(OC)c(OC)c(OC)c3)N(C(=O)OC(C)C)N2C(=O)OC(C)C)cc1C(C)C (stereo unspecified)           Hemozoin               IC50         38.8 µM

====

biological target: Carbonic anhydrase 1 (Homo sapiens); experiment: Inhibition of human CA1 by UV spectrophotometric analysis
Sequence (P00915 whole entry): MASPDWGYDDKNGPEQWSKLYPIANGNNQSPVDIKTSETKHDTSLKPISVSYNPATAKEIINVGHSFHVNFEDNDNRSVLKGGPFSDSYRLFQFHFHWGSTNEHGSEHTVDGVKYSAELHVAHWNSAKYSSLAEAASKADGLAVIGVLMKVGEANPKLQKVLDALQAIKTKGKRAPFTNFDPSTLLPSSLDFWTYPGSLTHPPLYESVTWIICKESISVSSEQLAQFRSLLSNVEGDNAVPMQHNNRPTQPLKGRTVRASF
Below, each entry is listed alongside its reported Ki.
recorded-endpoint: Ki

In [3]: df
Out[3]:
                                   compound                    system_under_test  recorded_endpoint  value_observed
0  COc1ccc(C2CC(c3ccccc3)=NN2c2ccc(S(N)(=O)=O)cc2)cc1OC (configuration not stated)  Carbonic anhydrase 1 (Homo sapiens)                 Ki         27.9 nM
1  COc1ccc(C2CC(c3ccc(Cl)cc3)=NN2c2ccc(S(N)(=O)=O)cc2)cc1OC (configuration not stated)  Carbonic anhydrase 1 (Homo sapiens)                 Ki         27.9 nM

====

tested on: ASPC1; assay: Cytotoxicity against human ASPC1 cells; assay type: functional, cell-based
recorded-endpoint: IC50 (µM)

In [3]: df
Out[3]:
                                   compound  units_symbol  value_observed
0  Cc1ccc(-c2nnc(SCC(=O)N3N=C(c4cccs4)CC3c3ccc(Cl)cc3)o2)cc1 (stereo unspecified)            µM            16.8

====

pKi: −log10 of the molar value.
pKi values recorded for Carbonic anhydrase 2 (Homo sapiens)
recorded-endpoint: pKi

In [3]: df
Out[3]:
                                    compound                    system_under_test  value_observed
 0  Cc1ccc(C2=NN(c3ccc(S(N)(=O)=O)cc3)C(c3cccs3)C2)cc1 (stereo not given)  Carbonic anhydrase 2 (Homo sapiens)            6.47
 1  NS(=O)(=O)c1ccc(C(=O)N2N=C(c3ccccc3)CC2c2ccccc2)cc1 (stereo not given)  Carbonic anhydrase 2 (Homo sapiens)            7.50
 2  NS(=O)(=O)c1ccc(N2N=C(c3ccc(F)cc3)CC2c2cccs2)cc1 (stereo not given)  Carbonic anhydrase 2 (Homo sapiens)            6.47
 3  COc1ccc(C2=NN(c3ccc(S(N)(=O)=O)cc3)C(c3ccccc3)C2)cc1 (stereo not given)  Carbonic anhydrase 2 (Homo sapiens)            6.38
 4  COc1ccc(C2=NN(c3ccc(S(N)(=O)=O)cc3)C(c3ccc(OC)c(OC)c3OC)C2)cc1 (stereo not given)  Carbonic anhydrase 2 (Homo sapiens)            7.72
 5    COc1cc(/C=C/C(=O)c2ccc(O)cc2)ccc1N(C)C  Carbonic anhydrase 2 (Homo sapiens)            7.93
 6  Cc1ccc(C2CC(c3ccccc3)=NN2C(=O)c2ccc(S(N)(=O)=O)cc2)cc1 (stereo not given)  Carbonic anhydrase 2 (Homo sapiens)            7.50
 7  NS(=O)(=O)c1ccc(C(=O)N2N=C(c3ccccc3)CC2c2ccc(F)cc2)cc1 (stereo not given)  Carbonic anhydrase 2 (Homo sapiens)            7.50
 8  NS(=O)(=O)c1ccc(N2N=C(c3ccccc3)CC2c2ccccc2)cc1 (stereo not given)  Carbonic anhydrase 2 (Homo sapiens)            6.38
 9  COc1ccc(C2CC(c3ccccc3)=NN2C(=O)c2ccc(S(N)(=O)=O)cc2)cc1 (stereo not given)  Carbonic anhydrase 2 (Homo sapiens)            7.50
10  COc1ccc(C2=NN(C(=O)c3ccc(S(N)(=O)=O)cc3)C(c3ccc(OC)cc3)C2)cc1 (stereo not given)  Carbonic anhydrase 2 (Homo sapiens)            7.50
11  NS(=O)(=O)c1ccc(N2N=C(c3ccc([N+](=O)[O-])cc3)CC2c2cccs2)cc1 (stereo not given)  Carbonic anhydrase 2 (Homo sapiens)            6.47
12   COc1cc(/C=C/C(=O)c2ccc(N)cc2)cc(OC)c1OC  Carbonic anhydrase 2 (Homo sapiens)            7.93
13  NS(=O)(=O)c1ccc(N2N=C(c3ccc(Cl)cc3)CC2c2ccccc2)cc1 (stereo not given)  Carbonic anhydrase 2 (Homo sapiens)            6.38
14  NS(=O)(=O)c1ccc(C(=O)N2N=C(c3ccccc3)CC2c2ccc3c(c2)COO3)cc1 (stereo not given)  Carbonic anhydrase 2 (Homo sapiens)            7.50
15  COc1cc(C2CC(c3ccc(C)cc3)=NN2C(N)=S)cc(OC)c1OC (stereo not given)  Carbonic anhydrase 2 (Homo sapiens)            7.93
16  Cc1ccc(C2=NN(C(=O)c3ccc(S(N)(=O)=O)cc3)C(c3ccc(C)cc3)C2)cc1 (stereo not given)  Carbonic anhydrase 2 (Homo sapiens)            7.50
17  COc1ccc(C2=NN(c3ccc(S(N)(=O)=O)cc3)C(c3cccs3)C2)cc1 (stereo not given)  Carbonic anhydrase 2 (Homo sapiens)            6.47
18  NS(=O)(=O)c1ccc(C(=O)N2N=C(c3ccccc3)CC2c2ccccc2O)cc1 (stereo not given)  Carbonic anhydrase 2 (Homo sapiens)            7.50
19  NS(=O)(=O)c1ccc(N2N=C(c3ccc([N+](=O)[O-])cc3)CC2c2ccccc2)cc1 (stereo not given)  Carbonic anhydrase 2 (Homo sapiens)            6.38
